Source listed as paper PMC10349855.

# system: T1, RBM5 RRM1-ZnF1S-RRM2 (human, UniProt P52756 94-315, C191G)
# T1 sequence: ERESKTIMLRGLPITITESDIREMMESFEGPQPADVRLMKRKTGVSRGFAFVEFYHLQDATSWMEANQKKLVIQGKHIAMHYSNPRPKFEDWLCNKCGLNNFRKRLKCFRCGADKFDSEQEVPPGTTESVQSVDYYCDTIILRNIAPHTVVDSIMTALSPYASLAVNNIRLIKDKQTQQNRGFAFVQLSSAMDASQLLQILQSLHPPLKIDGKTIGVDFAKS
# experimentalDetails: ITC; Zn; 20 mM MES pH 6.5, 100 mM NaCl, 2 mM 2-mercaptoethanol, 25 C; protein 10-30 uM in the cell; one-site fit
# experimentalConditions: tags: His-thioredoxin, TEV-cleaved (scar left out)
pKd: −log10 of the molar value.

binder	pKd
UGGCUCUUCUCU (ssRNA) [GGCU_12]	6.88
